B1: library; a variant is named by its letters at N, in order (parent)
chain: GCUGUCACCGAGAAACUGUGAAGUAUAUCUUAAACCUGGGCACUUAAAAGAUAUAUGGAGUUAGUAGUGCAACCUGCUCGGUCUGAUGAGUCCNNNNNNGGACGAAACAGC

- Variants of: B1
- method: normalized RNA/DNA level with ligand (relative to sTRSVctl = 100) (log10 (% of sTRSVctl)); HEK293T; ligand: cyclic di-GMP (c-di-GMP-II aptamer); ligand concentration (+) RNA-Seq: 1 mM; higher = less ribozyme self-cleavage, higher mRNA level
- recordedConditions: reporter: mCherry (pCS4076), ligand present: yes
measuredMetric: normalized RNA/DNA level with ligand (log10)

// solved cases for normalized RNA/DNA level with ligand (log10) follow
Qu. Give reported normalized RNA/DNA level with ligand (log10) value for AAAGUC
Ans. 1.75

Qu. Tell me its normalized RNA/DNA level with ligand (log10) given UAUAUA as the entry.
Ans. 1.86

Qu. Specify reported normalized RNA/DNA level with ligand (log10) for the variant shown: CCGAAA
Ans. 1.53

Qu. Using the record for CCCACU , state its measured normalized RNA/DNA level with ligand (log10).
Ans. 1.83

Here's the next entry for you.
Qu. Supply reported normalized RNA/DNA level with ligand (log10) belonging to this variant: AUUAGC
Ans. 1.76
